property name: melting point

Example cases with answers are listed next.
{"compound": "COc1ccc(C(O)c2sccc2C=O)cc1OC (stereo unspecified)", "melting point": "90 to 91 °C"}
{"compound": "NC1CC(O)c2ccccc21 (stereo unspecified)", "melting point": "108 to 110 °C"}
{"compound": "CCn1c(=O)n(-c2ccc(Oc3nc4ccccc4n3C)cc2)c2ncc(Cl)cc21", "melting point": "208 to 210 °C"}

**Q:** Note melting point for the compound shown: CN1CCC2(CC1)SC(C(C(=O)OC(C)(C)C)N1C(=O)c3ccccc3C1=O)NC2C(=O)OCc1ccccc1 (stereo unspecified)
**A:** 173 to 175 °C

**Q:** Note melting point for the compound shown: `Cc1c(CC(=O)O)c2c(F)c(O)ccc2n1C(=O)c1ccc(Cl)cc1`
**A:** 187 to 189 °C

**Q:** Note melting point for the compound shown: `CS(=O)(=O)Nc1ccc(N2CCN(c3cc(N)ccn3)CC2)cc1`
**A:** 225 to 227 °C

**Q:** Note melting point for the compound shown: `CCCc1c(C(C)C)nn2ccccc12`
**A:** 41 to 42 °C

* * *

property name: melting point

Example cases with answers are listed next.
{"compound": "O=C1C2C[C@@H](OCc3ccccc3)CN2C(=O)N1c1ccc([N+](=O)[O-])c2ccccc12 (stereo partly specified)", "melting point": "120 to 122 °C"}
{"compound": "COc1ccc(C(=O)Nc2cc(NC(=O)c3cccc(N(C)C)c3)ccc2F)cc1OC", "melting point": "187 to 188 °C"}
{"compound": "CC(Oc1ccc(-c2ccc(C#N)c(C#N)c2)cc1)C(O)CCc1cccnc1 (stereo unspecified)", "melting point": "136 to 137 °C"}
{"compound": "COc1ccc(CCOc2cncc(Cl)c2)cc1OC", "melting point": "101 to 102 °C"}
{"compound": "CC(C)c1ccc2oc(=O)c(NC(=O)Nc3ccc(F)cc3F)c(-c3ccc(F)cc3)c2c1", "melting point": "216 to 217 °C"}

**Q:** Note melting point for the compound shown: `C=CCc1c(C)cc(C)cc1O`
**A:** 51 °C

**Q:** Note melting point for the compound shown: COc1ccc(OC(CCCN2C3CCC2CNC3)c2ccc(C#N)cc2)cc1OC (stereo unspecified)
**A:** 38 to 43 °C

**Q:** Note melting point for the compound shown: `COC(=O)CCCCCSc1ccc(-c2ccc(Cl)cc2)cc1`
**A:** 87 to 88 °C

**Q:** Note melting point for the compound shown: `CCn1c(=O)n(C)c(=O)n(-c2cc(C(=O)OC)c(Cl)cc2F)c1=O`
**A:** 48 to 49 °C

**Q:** Note melting point for the compound shown: `CC(C)N1CCN(CCCOc2ccc3nc(C#N)nc(NCC(C)(C)C)c3c2)CC1`
**A:** 103 to 105 °C

**Q:** Note melting point for the compound shown: CCCC(=O)Nc1ccc(C2=NNC(=O)NC2C)cc1 (stereo unspecified)
**A:** 232 to 234 °C

**Q:** Note melting point for the compound shown: `C[C@H](Cc1ccc(O)c(O)c1)NC(=O)OC(C)(C)C`
**A:** 116 to 118 °C

**Q:** Note melting point for the compound shown: `COc1ccc(C(=O)Nc2c(Cl)cncc2Cl)c2c3cc([N+](=O)[O-])ccc3n(C)c12`
**A:** > 250 °C

**Q:** Note melting point for the compound shown: `CN1CCN(C(=O)c2ccc(CCc3cc4cc(C#N)ccc4o3)cc2)CC1`
**A:** 115 to 116 °C

**Q:** Note melting point for the compound shown: `CCOC(=O)/C=C/c1ccc(Cn2ccnc2)c(Cl)c1`
**A:** 112 to 114 °C

**Q:** Note melting point for the compound shown: `Cc1nc2ccccc2n1Cc1cc([N+](=O)[O-])ccc1O`
**A:** > 260 °C

**Q:** Note melting point for the compound shown: `NC(=S)NN=C(CCCCl)c1cccs1`
**A:** 120 to 122 °C

**Q:** Note melting point for the compound shown: `CCN(CC)c1ccc(/C=C/c2ccccc2F)cc1`
**A:** 78 to 79 °C

**Q:** Note melting point for the compound shown: CNC(=O)ON=C1SC(C)C(=O)N1N(C)C (stereo unspecified)
**A:** 110 to 113 °C

**Q:** Note melting point for the compound shown: `C[C@H](C#Cc1ccc(COCc2ccc(F)cc2)s1)N(O)C(N)=O`
**A:** 90 to 91 °C

**Q:** Note melting point for the compound shown: CN(CCOc1ccc(CC(Oc2ccc3ccccc3c2)C(=O)O)cc1)c1nc2ccccc2o1 (stereo unspecified)
**A:** 162 to 164 °C

* * *

The reader will find reported melting point values listed item by item below.

Example cases with answers are listed next.
{"molecular string": "C#CCCC(=O)N1CCC(=Cc2ccc(C3=NCCO3)cc2)CC1", "melting point": "118 °C"}
{"molecular string": "CNC(=C[N+](=O)[O-])NCCCOc1cccc(CCCN(C)C)c1", "melting point": "59.5 to 61 °C"}
{"molecular string": "Cc1ccc2nc(SCC(=O)O)oc2c1", "melting point": "144 to 146 °C"}
{"molecular string": "CC(C)n1nc(-c2c(-c3ccccc3)nn3cccc(O)c23)ccc1=O", "melting point": "229 to 230 °C"}
{"molecular string": "COc1cc2nc(N)nc(-c3cc(Br)c(C)cc3Br)c2cc1OC", "melting point": "282 to 284 °C"}

Proceeding to the next compound to report its melting point.
**Q:** Note melting point for the compound shown: `O=C(O)CCc1c(Br)cccc1C(F)(F)F`
**A:** 122 to 126 °C

* * *

property name: melting point

{"compound": "CC(=O)OCCC1CCc2cccc3c(C4=C(c5cn(C)c6ccccc56)C(=O)OC4=O)cn1c23 (stereo unspecified)", "melting point": "143 to 146 °C"}
{"compound": "CC(C)(C)NC(=O)[C@@H]1CN(C(=O)OC(C)(C)C)CCN1C(=O)OCc1ccccc1", "melting point": "134 to 135 °C"}
{"compound": "COc1cc(C(O)(C(F)(F)F)C(F)(F)F)cc(Br)c1N(S(C)(=O)=O)S(C)(=O)=O", "melting point": "193 °C"}

**Q:** Note melting point for the compound shown: `O=c1nc(-c2cccc(Sc3ccncc3)n2)sc2ccccc12`
**A:** 245 to 246 °C

**Q:** Note melting point for the compound shown: `C[C@@H](Cn1ncc2ccc3c(c21)C[C@@H](OCC(=O)OC(C)(C)C)CO3)N=[N+]=[N-]`
**A:** 77 to 78 °C

**Q:** Note melting point for the compound shown: `O=C1c2ccccc2C(=O)N1CSc1ccncc1`
**A:** 133 to 134 °C

**Q:** Note melting point for the compound shown: Cc1ccc(C)c(S(=O)(=O)N(C)CC(O)(CO)c2ccccc2)c1 (stereo unspecified)
**A:** 114 to 115 °C

**Q:** Note melting point for the compound shown: `Nc1ccc(-c2ccncc2)cc1[N+](=O)[O-]`
**A:** 234 to 238 °C

**Q:** Note melting point for the compound shown: `Cn1cnc(COc2nn3c(-c4ccccc4)nnc3cc2N2CCOCC2)n1`
**A:** 205 to 206 °C

**Q:** Note melting point for the compound shown: `O=C(Nc1cccnc1)c1cc2ccnc(Cl)c2[nH]1`
**A:** > 320 °C

**Q:** Note melting point for the compound shown: `CC1=Nc2ccc(-c3sc(C#N)cc3C)cc2C2(CCCC2)O1`
**A:** 58 to 60 °C

**Q:** Note melting point for the compound shown: `CN(C)C(=O)c1cn(Cc2ccccc2)c(=O)c2c1c1cc(F)ccc1n2C`
**A:** 192 to 193 °C

**Q:** Note melting point for the compound shown: `OCCCN1CCC(c2ccccc2)(c2ccccc2)CC1`
**A:** 97 °C

**Q:** Note melting point for the compound shown: `COC(=O)c1cc(-c2cccc(C(F)(F)F)c2)c(=O)n2ccccc12`
**A:** 147 to 148 °C

**Q:** Note melting point for the compound shown: CC(C)P1(=O)c2ccccc2CN1Cc1ccccc1 (stereo unspecified)
**A:** 145 to 147 °C

**Q:** Note melting point for the compound shown: `CCOC(=O)c1cc(-c2ccccc2)nc2c(N)cccc12`
**A:** 66 to 69 °C

* * *

property name: melting point

{"compound": "CC(C)(C)OC(=O)C(ON)c1ccccc1 (stereo unspecified)", "melting point": "48.2 to 49.6 °C"}
{"compound": "CC1(C)N=C(c2ccccc2Cl)c2cc([N+](=O)[O-])ccc2NC1=O", "melting point": "125 to 127 °C"}
{"compound": "COC(=O)C=C1C(=O)N(C)C(=O)N1C", "melting point": "49.5 °C"}
{"compound": "O[C@H](COc1cccc2[nH]ccc12)CN1CC=C(c2c[nH]c3cc(Cl)ccc23)CC1", "melting point": "200 to 202 °C"}
{"compound": "CCCCc1ncc(C(=O)OC)c(=O)n1Cc1ccc(-c2ccccc2C(=O)O)cc1", "melting point": "166 to 168 °C"}
{"compound": "CCCNc1nc(C#N)c(C#N)nc1CC(C)C", "melting point": "107 to 110 °C"}
{"compound": "COCOc1ccc(-n2c(=O)c3c(CN(C)Cc4ccccc4)c(-c4ccc(NC(=O)NOC)cc4)sc3n(Cc3c(F)cccc3F)c2=O)cc1", "melting point": "189 to 191 °C"}
{"compound": "O=C(Nc1ccc2c(c1)C(=O)NC2=O)C(=O)N1CCC(Cc2ccc(F)cc2)CC1", "melting point": "226 to 228 °C"}

**Q:** Note melting point for the compound shown: `O=C(Nc1cc(-c2ccc(Cl)cc2)no1)c1c(Cl)cccc1Cl`
**A:** 208 to 209 °C

**Q:** Note melting point for the compound shown: CC(C)(C)c1cc(C2SC(CC(=O)O)C(=O)N2CCCO)cc(C(C)(C)C)c1O (stereo unspecified)
**A:** 227 to 228 °C
